assay: Rodent pharmacokinetic experiment in mice; format: in vivo, DBA-1J mice; settings: female, DBA-1J, mouse, plasma, po, 300 mg/kg P.O., 24 hr, read-out: 24 hr plasma levels
READOUT TYPE: concentration at 24 hr

Q: Query: concentration at 24 hr; subject: O=c1nc(NO)ccn1[C@@H]1O[C@H](CO)[C@H](O)C1O (stereo partly shown)
A: ~0.4 µM

* * *

experiment: Rodent pharmacokinetic experiment in mice; format: in vivo, DBA-1J mice; conditions: female, DBA-1J, mouse, plasma, PO 30 mg/kg
READOUT TYPE: Cmax (ng/mL)
Could you give me the number in ng/mL? Just the number is fine.

Q: Query: Cmax; subject: O=c1nc(NO)ccn1[C@@H]1O[C@H](CO)[C@H](O)C1O (stereo partly shown)
A: 3
